molecular target: human glucagon receptor (human, UniProt P47871 26-477); experiment: cell-based or functional assay
Sequence (P47871 26-477): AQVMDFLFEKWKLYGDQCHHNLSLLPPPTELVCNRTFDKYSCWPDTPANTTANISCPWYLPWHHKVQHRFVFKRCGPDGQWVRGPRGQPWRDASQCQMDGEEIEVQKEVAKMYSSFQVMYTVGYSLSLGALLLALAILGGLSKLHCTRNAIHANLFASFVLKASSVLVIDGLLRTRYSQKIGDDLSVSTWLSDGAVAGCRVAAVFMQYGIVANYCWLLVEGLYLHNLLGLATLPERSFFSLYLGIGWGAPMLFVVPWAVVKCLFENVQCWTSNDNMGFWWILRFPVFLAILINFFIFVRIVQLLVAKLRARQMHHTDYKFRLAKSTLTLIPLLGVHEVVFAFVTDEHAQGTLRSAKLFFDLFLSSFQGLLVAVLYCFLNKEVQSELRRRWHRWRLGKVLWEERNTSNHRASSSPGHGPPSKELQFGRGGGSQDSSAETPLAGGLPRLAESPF
Numbered stars: 1 amine (or outer) side, 2 acyl side, 3 side chain; on linkers, the order of the positions; unused ones are H or OH. Square brackets hold non-standard residues; d marks the D form. Side chains are listed from the residue outwards. Ends that are not written are not given here. γGlu = O=C(O)[C@H](CCC(=O)[*:2])N[*:1]; X70 = not defined here; x70 = not defined here; Aib = CC(C)(N)C(=O)O
Response field label: string, one of y (EC50 hGlucagon-R (cAMP) strictly below 0.008 nM) or n.

Reference set, count: 8
>>> qualitative_label("HXQGTFTSDLSKQKESRRAQLFIEWLKAGGPSSGAPPPS (dSer at 2; K(γE-x53) at 14; C-terminal NH2) [SEQ ID NO: 68]")
"y"
>>> qualitative_label("HXQGTFTSDLSKQKESRAAQDFIEWLKAGGPSSGAPPPS (dSer at 2; K(γE-x75) at 14; C-terminal NH2) [SEQ ID NO: 9]")
"y"
>>> qualitative_label("H[Aib]QGTFTSDLSKQK([γGlu-X70])DSQAAQDFIEWLKAGGPSSGAPPPS-NH2 (reading uncertain) [SEQ ID NO: 156]")
"n"
>>> qualitative_label("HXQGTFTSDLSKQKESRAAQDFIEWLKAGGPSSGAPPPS (dSer at 2; K(x53) at 14; C-terminal NH2) [SEQ ID NO: 66]")
"n"
>>> qualitative_label("H[Aib]QGTFTSDLSKQK([γGlu-x70])ESQAAQDFIEWLKAGGPSSGAPPPS-NH2 (reading uncertain) [SEQ ID NO: 41]")
"n"
>>> qualitative_label("HXQGTFTSDLSKQKDEEAARLFIEWLKAGGPSSGAPPPS (dSer at 2; K(γE-X70) at 14; C-terminal NH2) [SEQ ID NO: 222]")
"y"
>>> qualitative_label("H[Aib]QGTFTSDLSKQK([γGlu-x70])DEQKAKLFIEWLKSGGPSSGAPPPS-NH2 (reading uncertain) [SEQ ID NO: 206]")
"n"
>>> qualitative_label("HXQGTFTSDLSKQKESXAAQDFIEWLKAGGPSSGAPPPS (dSer at 2; K(γE-x70) at 14; Aib at 17; C-terminal NH2) [SEQ ID NO: 11]")
"n"

Determine whether this binder shows EC50 hGlucagon-R (cAMP) lower than 0.008 nM (ties excluded): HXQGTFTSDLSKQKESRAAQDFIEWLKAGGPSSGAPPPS (dSer at 2; K(γE-x79) at 14; C-terminal NH2) [SEQ ID NO: 61] n

Determine whether this binder shows EC50 hGlucagon-R (cAMP) lower than 0.008 nM (ties excluded): HXQGTFTSDLSKQKDSQAAQDFIEWLKRAGPSSGAPPPS (dSer at 2; K(γE-x53) at 14; C-terminal NH2) [SEQ ID NO: 124] n

Determine whether this binder shows EC50 hGlucagon-R (cAMP) lower than 0.008 nM (ties excluded): HXQGTFTSDLSKQKESRAAQLFIEWLKAGGPSSGAPPPS (dSer at 2; K(γE-x70) at 14; C-terminal NH2) [SEQ ID NO: 45] n

Determine whether this binder shows EC50 hGlucagon-R (cAMP) lower than 0.008 nM (ties excluded): HXQGTFTSDLSKQKEEEAAKDFIEWLKAGGPSSGAPPPS (dSer at 2; K(γE-x53) at 14; C-terminal NH2) [SEQ ID NO: 17] n

Reference source for all entries: patent US20180185450A1
